- target.system: Gal(a1-3)Gal(b1-3)GlcNAc(b1-6)GalNAc
- test.name: glycan array binding signal (z-score within array); higher = stronger binding
- recorded.conditions: glycan notation: IUPAC condensed, linker removed
About 410 targets per protein were measured; listed, in parts, are those with the strongest signals and a random draw of the rest.
List of glycan array binding signal (z-score) values.
metric.name: glycan array binding signal (z-score)

[[record]]
binder = "Cohesin-hDECTIN-1 (Homo sapiens) (protein) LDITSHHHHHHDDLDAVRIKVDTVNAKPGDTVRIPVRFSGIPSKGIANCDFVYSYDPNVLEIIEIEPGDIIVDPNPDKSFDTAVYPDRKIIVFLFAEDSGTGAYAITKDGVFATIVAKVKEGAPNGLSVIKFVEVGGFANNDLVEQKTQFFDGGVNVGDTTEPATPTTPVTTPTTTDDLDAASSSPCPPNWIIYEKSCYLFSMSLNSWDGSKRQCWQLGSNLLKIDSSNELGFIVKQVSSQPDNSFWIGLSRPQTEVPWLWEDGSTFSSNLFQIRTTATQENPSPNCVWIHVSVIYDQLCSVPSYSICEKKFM"
recorded_number = 7.58

[[record]]
binder = "SP15308F-bth-333-19-333 (Bacteroides thetaiotaomicron) (protein) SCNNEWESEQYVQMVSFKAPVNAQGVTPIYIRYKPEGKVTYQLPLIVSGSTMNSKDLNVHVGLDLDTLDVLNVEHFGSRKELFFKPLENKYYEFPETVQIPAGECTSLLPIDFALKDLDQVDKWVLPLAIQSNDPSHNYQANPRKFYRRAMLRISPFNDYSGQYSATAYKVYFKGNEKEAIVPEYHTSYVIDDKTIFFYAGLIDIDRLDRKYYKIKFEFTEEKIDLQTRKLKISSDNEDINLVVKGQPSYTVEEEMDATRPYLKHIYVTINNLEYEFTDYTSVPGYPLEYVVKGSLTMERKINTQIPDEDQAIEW"
recorded_number = -1.04

